All values here come from patent US20030118612A1.

target of assay: T1, human G-CSF receptor (human, UniProt Q99062 25-836)
T1 sequence (looked up): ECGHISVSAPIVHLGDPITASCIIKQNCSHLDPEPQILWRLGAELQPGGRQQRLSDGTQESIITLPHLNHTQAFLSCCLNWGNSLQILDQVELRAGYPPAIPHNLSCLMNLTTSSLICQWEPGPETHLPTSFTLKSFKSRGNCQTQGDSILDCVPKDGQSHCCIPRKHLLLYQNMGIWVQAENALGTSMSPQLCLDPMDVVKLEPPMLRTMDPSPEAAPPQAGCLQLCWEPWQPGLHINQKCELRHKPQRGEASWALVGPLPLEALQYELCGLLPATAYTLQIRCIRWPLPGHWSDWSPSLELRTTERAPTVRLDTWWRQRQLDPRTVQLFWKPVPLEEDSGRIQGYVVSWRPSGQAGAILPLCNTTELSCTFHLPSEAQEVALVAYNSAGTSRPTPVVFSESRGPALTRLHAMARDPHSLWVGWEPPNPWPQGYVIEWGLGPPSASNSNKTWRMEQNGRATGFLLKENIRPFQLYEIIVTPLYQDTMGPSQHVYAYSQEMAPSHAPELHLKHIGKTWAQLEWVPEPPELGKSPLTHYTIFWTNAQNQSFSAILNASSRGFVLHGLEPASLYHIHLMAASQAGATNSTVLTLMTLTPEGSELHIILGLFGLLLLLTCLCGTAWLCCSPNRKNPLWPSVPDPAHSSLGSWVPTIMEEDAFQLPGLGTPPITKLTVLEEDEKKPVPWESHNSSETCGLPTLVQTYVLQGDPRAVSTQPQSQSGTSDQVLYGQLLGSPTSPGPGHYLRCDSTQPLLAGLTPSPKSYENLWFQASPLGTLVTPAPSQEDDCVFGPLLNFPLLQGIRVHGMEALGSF
method description: cell-based or functional assay
assay readout: EC50 (% of hG-CSF) conjugated to SPA-PEG 5000

# binder, value observed
data = [
    ("G-CSF variant K16/34/40R Q70K Q90K Q120K conjugated to SPA-PEG 5000 (ligand, SPA-PEG 5000 conjugated to the available PEGylation sites) TPLGPASSLPQSFLLRCLEQVRKIQGDGAALQERLCATYRLCHPEELVLLGHSLGIPWAPLSSCPSQALKLAGCLSQLHSGLFLYQGLLKALEGISPELGPTLDTLQLDVADFATTIWQKMEELGMAPALQPTQGAMPAFASAFQRRAGGVLVASHLQSFLEVSYRVLRHLAQP", "12 % of hG-CSF"),
]

--- query ---
input: What does the record list as EC50 (% of hG-CSF) conjugated to SPA-PEG 5000 for G-CSF variant K16/34/40R T105K Q120K conjugated to SPA-PEG 5000 (ligand, SPA-PEG 5000 conjugated to the available PEGylation sites) TPLGPASSLPQSFLLRCLEQVRKIQGDGAALQERLCATYRLCHPEELVLLGHSLGIPWAPLSSCPSQALQLAGCLSQLHSGLFLYQGLLQALEGISPELGPTLDKLQLDVADFATTIWQKMEELGMAPALQPTQGAMPAFASAFQRRAGGVLVASHLQSFLEVSYRVLRHLAQP ?
output: 8 % of hG-CSF
